System: Neutral sphingomyelinase (SMase)
Experiment: Neutral sphingomyelinase of MDCK cells
Type: biochemical, canine
Settings: 5 μM
Marks after values point to notes of the source that are not given here.
# reported Sphingomyelinase pH 7.1, enzyme activity (% of control); entries follow

CCCCCCCCCC(=O)N[C@H](CN1CCOCC1)[C@H](O)c1ccccc1 [PDMP, reference compound]
121 ± 13 % of control
CCCCCCCCCCCCCCCC(=O)NC(CN1CCCC1)C(O)c1ccccc1 (racemic) [BML-129]
105 ± 11 % of control
CCCCCCCCCCCCCCCC(=O)NC(CN1CCCC1)C(O)c1ccccc1 (racemic) [BML-130]
110 ± 7 % of control

Moving on to another compound below.
Could you share which Sphingomyelinase pH 7.1, enzyme activity (% of control) value was measured for CCCCCCCCCCCCCC=CC(O)C(CN1CCCC1)NC(=O)CCCCCCCCCCCCCCC [IV-231B, D-threo-1-pyrrolidino-1-deoxyceramide] ?
131 ± 3^b % of control
